# Tested on: PfAP2-HC AP2 domain (GST-tagged)
# ASSAY_TEXT: gcPBM binding intensity (ln(normalized median fluorescence intensity)); higher = stronger DNA binding
The full ranking holds about 25,000 sequences; the median of “ln(normalized median fluorescence intensity)” is about 9.7, and the highest 2% start at about 11. This excerpt belongs to a sample that is enriched for the highest values.
Recorded measurements of gcPBM binding intensity (ln), one per entry
READOUT_LABEL: gcPBM binding intensity (ln)

{"RECORD_SEQUENCE": "TATAAACACCCATATAAACACACATACATACATACA [CACACA_site8791]", "READOUT_LABEL": "gcPBM binding intensity (ln)", "DATA_VALUE": 10.2}
{"RECORD_SEQUENCE": "ATAAATATATTTCACGCACACACACCCCAAATAAAT [CACACA_site9272]", "READOUT_LABEL": "gcPBM binding intensity (ln)", "DATA_VALUE": 10.4}
{"RECORD_SEQUENCE": "ATATATATATATATTTATTCATATATTTTTTGTCTT [TGCATGCA_negctrl_site58]", "READOUT_LABEL": "gcPBM binding intensity (ln)", "DATA_VALUE": 9.52}
{"RECORD_SEQUENCE": "AATACATATAAAAGTACACACACACCCATATATATA [CACACA_site8220]", "READOUT_LABEL": "gcPBM binding intensity (ln)", "DATA_VALUE": 10.5}
{"RECORD_SEQUENCE": "AGATAAAAAAAGTACACACACACATATATATATATA [CACACA_site3072]", "READOUT_LABEL": "gcPBM binding intensity (ln)", "DATA_VALUE": 10.4}
{"RECORD_SEQUENCE": "CGTAGCCGCACTAACACACACAAATATACGCAATCA [CACACA_site2898]", "READOUT_LABEL": "gcPBM binding intensity (ln)", "DATA_VALUE": 10.1}
{"RECORD_SEQUENCE": "AAAAAAAAAAAAAGCACACACACATATGCGTATATA [CACACA_site953]", "READOUT_LABEL": "gcPBM binding intensity (ln)", "DATA_VALUE": 10.3}
{"RECORD_SEQUENCE": "AACACCCATGGACACACACACATATATATATATATA [CACACA_site5809]", "READOUT_LABEL": "gcPBM binding intensity (ln)", "DATA_VALUE": 10.4}
{"RECORD_SEQUENCE": "TCCAAATGTTTGCGTTGTACTCTTTTTTTAAAACTA [XGTACX_site5148]", "READOUT_LABEL": "gcPBM binding intensity (ln)", "DATA_VALUE": 9.73}
{"RECORD_SEQUENCE": "TACACGCATAAACACACACACACACCCATATATATA [CACACA_site8114]", "READOUT_LABEL": "gcPBM binding intensity (ln)", "DATA_VALUE": 11.3}
{"RECORD_SEQUENCE": "TCCCAATTTATTATGTGTACTTATTATATACATATA [XGTACX_site4033]", "READOUT_LABEL": "gcPBM binding intensity (ln)", "DATA_VALUE": 9.72}
{"RECORD_SEQUENCE": "TATTATTATTTTATGGTGCAAAAAAAAAAAAAAAAA", "READOUT_LABEL": "gcPBM binding intensity (ln)", "DATA_VALUE": 8.83}
{"RECORD_SEQUENCE": "AAATATATTTCACGCACACACACCCCAAATAAATTT [CACACA_site3820]", "READOUT_LABEL": "gcPBM binding intensity (ln)", "DATA_VALUE": 11.2}
{"RECORD_SEQUENCE": "TAGGAAAAGAAAAGCACACACATAAATAGATATATA [CACACA_site6382]", "READOUT_LABEL": "gcPBM binding intensity (ln)", "DATA_VALUE": 10.3}
{"RECORD_SEQUENCE": "TATCTCATAGTATACACACACACACCCACCCATATA [CACACA_site1739]", "READOUT_LABEL": "gcPBM binding intensity (ln)", "DATA_VALUE": 10.7}
{"RECORD_SEQUENCE": "ATTAATATATTTACCACACACCCATTTCGATTTTAT [CACACA_site3605]", "READOUT_LABEL": "gcPBM binding intensity (ln)", "DATA_VALUE": 10.3}
{"RECORD_SEQUENCE": "ATAAAAATATTACGCACACACAAACTTATTCATTAT [CACACA_site1969]", "READOUT_LABEL": "gcPBM binding intensity (ln)", "DATA_VALUE": 10.2}
{"RECORD_SEQUENCE": "ATATAGAAAATGCATACACACTTTATATATATATTT [CACACA_site4658]", "READOUT_LABEL": "gcPBM binding intensity (ln)", "DATA_VALUE": 9.9}
{"RECORD_SEQUENCE": "TACGTAGCCACACTAACACACACAAATATGCACAAT [CACACA_site8942]", "READOUT_LABEL": "gcPBM binding intensity (ln)", "DATA_VALUE": 10.9}
{"RECORD_SEQUENCE": "AAGAAAAGCATAGATGCACACATATATATATATATA [CACACA_site8675]", "READOUT_LABEL": "gcPBM binding intensity (ln)", "DATA_VALUE": 10.5}
